Reported SPOT peptide array binding signal intensity values follow for various binders
Molecular target: AgFus1
Assay: SPOT peptide array binding signal intensity (averaged, normalized) (arbitrary units (background-subtracted, floor 0; scale differs between SH3 domains)); higher = stronger binding of the SH3 domain to the peptide

Field request: SPOT peptide array binding signal intensity | item: `TPTSGPPLLPPRNTM`
≤ 0

Entry under review: `PPLPRAPPVPPATFE` . Reported SPOT peptide array binding signal intensity?
≤ 0

Which SPOT peptide array binding signal intensity value is on record for `QPPLPSSAPPIPTSH` ?
≤ 0

I am curious: what SPOT peptide array binding signal intensity value has been reported for `HAPPLPPTAPPPPSL` ?
≤ 0

Find the recorded SPOT peptide array binding signal intensity belonging to `RAPPPVPKKPSSRIA` and report it.
≤ 0
